Origin of values: ChEMBL document CHEMBL1153910

# method: Half life in dog at 0.3 mg/kg, po
# Format: ADME, organism-based, Canis lupus familiaris
# Parameters: dose 0.3 mg/kg, route oral
# measurement conditions: in vivo
readout type: half-life (h)
Enter your answer as a number in h; do not include the unit.

compound structure string: COC(=O)c1ccc(NC(=O)NC23CC4CC(CC(C4)C2)C3)cc1O
half-life / h: 7.9

In the following, a different compound is considered.
In plain terms, O=C(O)CCCCCCCCCCCNC(=O)NC12CC3CC(CC(C3)C1)C2 has a documented half-life of 2.9

* * *

# method: AUC (0 to 24 hrs) in dog at 0.3 mg/kg, po
# Format: ADME, organism-based, Canis lupus familiaris
# Set-up: time < 24 hr, dose 0.3 mg/kg, route oral
# measurement conditions: plasma
readout type: AUC(0-t) at 24 h (µM·h)
Form entry: value (µM·h) — number only.

compound structure string: O=C(O)CCCCCCCCCCCNC(=O)NC12CC3CC(CC(C3)C1)C2
reading unit: µM·h
AUC(0-t) at 24 h: 0.0522

Would you kindly look at the next entry?
Sample COC(=O)c1ccc(NC(=O)NC23CC4CC(CC(C4)C2)C3)cc1O ; AUC(0-t) at 24 h observed: 0.189

* * *

# method: Tmax in dog at 0.3 mg/kg, po
# Format: ADME, organism-based, Canis lupus familiaris
# Set-up: dose 0.3 mg/kg, route oral
# measurement conditions: in vivo
readout type: Tmax (min)
Kindly answer with a numeric value in min, unit omitted.

compound structure string: O=C(O)CCCCCCCCCCCNC(=O)NC12CC3CC(CC(C3)C1)C2
readout type: Tmax
reading unit: min
assay value: 30

Pending compound:
// Tmax lookup, compound = COC(=O)c1ccc(NC(=O)NC23CC4CC(CC(C4)C2)C3)cc1O , result: 60

* * *

# system: Bifunctional epoxide hydrolase 2 (Homo sapiens)
# method: Inhibition of human soluble epoxide hydrolase by fluorescence assay
Recorded IC50 values for a group of compounds are listed next.
Answer in nM, number only, no unit symbol.

compound structure string: O=C(O)CCCc1ccc(NC(=O)NC23CC4CC(CC(C4)C2)C3)cc1
assay value: 19.9

compound structure string: O=C(Nc1ccc(O)c(C(=O)O)c1)NC12CC3CC(CC(C3)C1)C2
assay value: 116

compound structure string: O=C(O)Cc1ccc(NC(=O)NC23CC4CC(CC(C4)C2)C3)cc1
assay value: 392

compound structure string: O=C(Nc1cccc(OC(=O)c2ccccc2)c1)NC12CC3CC(CC(C3)C1)C2
assay value: 5.1

compound structure string: COC(=O)c1cc(NC(=O)NC23CC4CC(CC(C4)C2)C3)ccc1O
assay value: 12

// next item, IC50 requested
compound O=C(Nc1ccc(O)cc1)NC12CC3CC(CC(C3)C1)C2 , IC50 observed: 24

* * *

# reported Stability; entries follow
# method: Metabolic stability in human liver S9 fraction in absence of NADPH assessed as residual parent compound remaining
# Type: ADME, subcellular

Check out these entries, answers already filled in.
compound structure string: COC(=O)c1cc(NC(=O)NC23CC4CC(CC(C4)C2)C3)ccc1O
Stability: 46%
--
compound structure string: CC(=O)Oc1ccc(NC(=O)NC23CC4CC(CC(C4)C2)C3)cc1
Stability: < 0.1%
--
compound structure string: COC(=O)c1ccc(NC(=O)NC23CC4CC(CC(C4)C2)C3)cc1O
Stability: 93%
--
compound structure string: O=C(Nc1ccc(OC(=O)c2ccccc2)cc1)NC12CC3CC(CC(C3)C1)C2
Stability: 32%

Consider now this further molecule.
Entry under test: COC(=O)c1ccc(NC(=O)NC23CC4CC(CC(C4)C2)C3)cc1 . Its Stability was 97%

* * *

// reported AUC(0-inf) for each item listed
# method: AUC (0 to infinity) in dog at 0.3 mg/kg, po
# Format: ADME, organism-based, Canis lupus familiaris
# Parameters: time infinity, dose 0.3 mg/kg, route oral
# measurement conditions: plasma
Just the number plus its unit, please.

compound structure string: O=C(O)CCCCCCCCCCCNC(=O)NC12CC3CC(CC(C3)C1)C2
assay value: 0.0524 µM·h

Next item in the queue.
Per the record, COC(=O)c1ccc(NC(=O)NC23CC4CC(CC(C4)C2)C3)cc1O has AUC(0-inf) of 0.209 µM·h

* * *

# method: Chemical stability in 40 mM NaOH at 22 degC
# Format: physicochemical
readout type: half-life (h)
Give a bare numeral; the unit h is implied.

The compound listed as COC(=O)c1ccc(NC(=O)NC23CC4CC(CC(C4)C2)C3)cc1 shows half-life equal to 2

* * *

# method: Metabolic stability in human liver S9 fraction in presence of NADPH assessed as residual parent compound remaining
# Assay type: ADME, subcellular
Catalogue of Stability readings, one per entry.
Respond with the bare value in %.

compound structure string: COC(=O)c1ccc(NC(=O)NC23CC4CC(CC(C4)C2)C3)cc1
Stability / %: 95

Memo: O=C(Nc1ccc(OC(=O)c2ccccc2)cc1)NC12CC3CC(CC(C3)C1)C2 , reported Stability: 31

Entry COC(=O)c1cc(NC(=O)NC23CC4CC(CC(C4)C2)C3)ccc1O , Stability reported as 51

The recorded Stability for COC(=O)c1ccc(NC(=O)NC23CC4CC(CC(C4)C2)C3)cc1O is 89

The compound listed as CCOCCOCCOc1cccc(NC(=O)NC23CC4CC(CC(C4)C2)C3)c1 shows Stability equal to 56

* * *

# method: Chemical stability assessed as compound remaining after 7 hrs in 40 mM NaOH at 22 degC
# Type: physicochemical
# measurement conditions: read-out: Activity
readout type: remaining at 7 h (%)
The reply should be a number in %, with the unit left off.

Summary for this compound, COC(=O)c1ccc(NC(=O)NC23CC4CC(CC(C4)C2)C3)cc1O : remaining at 7 h is 80

* * *

# system: Bifunctional epoxide hydrolase 2 (Homo sapiens)
# method: Inhibition of human soluble epoxide hydrolase by fluorescence assay
Note to self: IC50 under 20 nM means class 1, ties and anything higher get class 0.

Examples with answers:
compound structure string: CC(=O)Oc1ccc(NC(=O)NC23CC4CC(CC(C4)C2)C3)cc1
label value: class 1
//
compound structure string: O=C(Nc1ccccc1)NC12CC3CC(CC(C3)C1)C2
label value: class 1
//
compound structure string: COC(=O)CCc1ccc(NC(=O)NC23CC4CC(CC(C4)C2)C3)cc1
label value: class 1
//
compound structure string: O=C(Nc1cccc(C(=O)N2CCOCC2)c1)NC12CC3CC(CC(C3)C1)C2
label value: class 0
//
compound structure string: CC(=O)Oc1cccc(NC(=O)NC23CC4CC(CC(C4)C2)C3)c1
label value: class 1
//
compound structure string: O=C(Nc1ccc(C(=O)O)c(O)c1)NC12CC3CC(CC(C3)C1)C2
label value: class 0
//
compound structure string: COC(=O)c1cccc(NC(=O)NC23CC4CC(CC(C4)C2)C3)c1
label value: class 1
//
compound structure string: O=C(Nc1ccc(C(=O)O)cc1)NC12CC3CC(CC(C3)C1)C2
label value: class 0

Next up:
Please state whether IC50 is below 20 nM for COC(=O)c1ccc(NC(=O)NC23CC4CC(CC(C4)C2)C3)cc1O class 1

* * *

# system: Bifunctional epoxide hydrolase 2 (Homo sapiens)
# method: Inhibition of human soluble epoxide hydrolase by fluorescence assay
pIC50: −log10 of the molar value.
// class assignment uses pIC50 with these ranges: group A (below 7), group B (7 to below 8), group C (8 or more)

Each compound maps to one class by pIC50. Which class for COc1cccc(NC(=O)NC23CC4CC(CC(C4)C2)C3)c1 ? group C

Sort into band: O=C(Nc1cccc(C(=O)N2CCC(N3CCOCC3)CC2)c1)NC12CC3CC(CC(C3)C1)C2 group B

Hi there! Could you help me figure out the category for O=C(Nc1cccc(C(=O)O)c1)NC12CC3CC(CC(C3)C1)C2 please? group A

Which pIC50 band matches COC(=O)c1ccc(NC(=O)NC23CC4CC(CC(C4)C2)C3)cc1 ? group C

Given COC(=O)Cc1ccc(NC(=O)NC23CC4CC(CC(C4)C2)C3)cc1 , name the class its pIC50 places it in. group C

Band for the recorded pIC50 of CN1CCN(C(=O)c2cccc(NC(=O)NC34CC5CC(CC(C5)C3)C4)c2)CC1 ? group B

* * *

# system: Bifunctional epoxide hydrolase 2 (Homo sapiens, UniProt P34913)
# Sequence (P34913 whole entry): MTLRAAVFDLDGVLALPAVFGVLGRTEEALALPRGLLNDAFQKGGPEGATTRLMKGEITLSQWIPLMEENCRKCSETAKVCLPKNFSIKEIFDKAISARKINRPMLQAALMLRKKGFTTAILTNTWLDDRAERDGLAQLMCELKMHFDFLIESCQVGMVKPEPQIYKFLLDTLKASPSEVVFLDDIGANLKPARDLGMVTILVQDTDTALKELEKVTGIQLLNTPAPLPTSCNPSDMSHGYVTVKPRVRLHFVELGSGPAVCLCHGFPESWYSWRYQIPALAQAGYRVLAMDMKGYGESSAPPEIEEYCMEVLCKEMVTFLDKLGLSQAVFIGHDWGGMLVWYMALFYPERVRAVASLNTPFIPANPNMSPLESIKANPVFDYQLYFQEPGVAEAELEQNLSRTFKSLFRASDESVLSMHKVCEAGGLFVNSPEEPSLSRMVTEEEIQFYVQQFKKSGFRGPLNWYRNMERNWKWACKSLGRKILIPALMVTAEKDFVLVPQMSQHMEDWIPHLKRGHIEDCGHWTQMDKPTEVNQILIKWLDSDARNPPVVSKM
# method: Inhibition of human soluble epoxide hydrolase by fluorescence assay
For each record, check the reported IC50: if it is below 100 nM write YES, else write NO.

Some solved entries appear below for comparison.
compound structure string: COc1ccc(NC(=O)NC23CC4CC(CC(C4)C2)C3)cc1
label value: YES
//
compound structure string: O=C(Nc1ccccc1O)NC12CC3CC(CC(C3)C1)C2
label value: NO
//
compound structure string: O=C(Nc1ccc(OC(=O)c2ccccc2)cc1)NC12CC3CC(CC(C3)C1)C2
label value: YES
//
compound structure string: O=C(O)CCc1ccc(NC(=O)NC23CC4CC(CC(C4)C2)C3)cc1
label value: NO
//
compound structure string: O=C(Nc1cccc(O)c1)NC12CC3CC(CC(C3)C1)C2
label value: YES
//
compound structure string: COc1ccccc1NC(=O)NC12CC3CC(CC(C3)C1)C2
label value: NO

Consider COC(=O)CCCc1ccc(NC(=O)NC23CC4CC(CC(C4)C2)C3)cc1 . Does its IC50 lie strictly below 100 nM? YES
